Tested on: NCI-H1623 (Lung Adenocarcinoma)
ASSAY TEXT: Bliss excess, mean over the matrix (fraction); higher = more synergy;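 further: after 72 h of two-drug dosing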
PROPERTY NAME: Bliss excess
Answers are plain numbers.

compound="NC1(C(=O)N[C@@H](CCO)c2ccc(Cl)cc2)CCN(c2ncnc3[nH]ccc23)CC1 [Capivasertib] + CC(C)n1c(=O)n(C)c2cnc3cc(F)c(-c4ccc(OCCCN5CCCCC5)nc4)cc3c21 [AZD1390] (first compound max 10 µM, 7x7, partner max 0.3 µM)" value_reported=-0.024

Here is another compound to look at.
Just so you know, measured Bliss excess for CCN(CCO)CCCOc1ccc2c(Nc3cc(CC(=O)Nc4cccc(F)c4)[nH]n3)ncnc2c1 [AZD2811] + C[C@@H]1COCCN1C2=NC(=NC(=C2)C3(CC3)[S@](=N)(=O)C)C4=C5C=CNC5=NC=C4 [AZD6738] (first compound max 1 µM, 7x7, partner max 10 µM) came out at -0.0271

###

System: RL95-2 (Endometrial Carcinoma)
ASSAY TEXT: Bliss excess, mean over the matrix (fraction); higher = more synergy
What Bliss excess was measured for each of the following?
Give bare numbers.

molecule="CC1(C)CCC(CN2CCN(c3ccc(C(=O)NS(=O)(=O)c4ccc(NCC5CCOCC5)c([N+](=O)[O-])c4)c(Oc4cnc5[nH]ccc5c4)c3)CC2)=C(c2ccc(Cl)cc2)C1 [Venetoclax] + Cc1cc2ncnn2cc1Nc1ncc2c(n1)n(C1CCOCC1)c(=O)n2C [AZD7648] (first compound max 1 µM, 7x7, partner max 10 µM)" property_name="Bliss excess" value_reported=-0.0025

Just so you know, measured Bliss excess for Cc1c2c(nn1C)CSCc1cc(n(C)n1)CSc1cc(c3ccccc3c1)OCCCc1c(C(=O)O)n(C)c3c-2c(Cl)ccc13 [AZD5991] + C=CCn1c(=O)c2cnc(Nc3ccc(N4CCN(C)CC4)cc3)nc2n1-c1cccc(C(C)(C)O)n1 [AZD1775] (first compound max 1 µM, partner max 1 µM) came out at 0.0116

###

Tested on: SK-MM-2 (Plasma Cell Myeloma)
ASSAY TEXT: Bliss excess, mean over the matrix (fraction); higher = more synergy
PROPERTY NAME: Bliss excess
Answers are plain numbers.

Illustrative cases are given below, each with its answer.
compound="CN(CCO)CC[C@H](CSc1ccccc1)Nc1ccc(S(=O)(=O)NC(=O)c2ccc(N3CCC([C@@H](O)c4ccccc4-c4ccc(Cl)cc4)CC3)cc2)cc1S(=O)(=O)C(F)(F)F [AZD4320] + C=CCn1c(=O)c2cnc(Nc3ccc(N4CCN(C)CC4)cc3)nc2n1-c1cccc(C(C)(C)O)n1 [AZD1775] (first compound max 1 µM, partner max 1 µM)" study_target="SK-MM-2 (Plasma Cell Myeloma)" value_reported=0.0011
compound="Cc1cc2ncnn2cc1Nc1ncc2c(n1)n(C1CCOCC1)c(=O)n2C [AZD7648] + COc1cc([C@@H]2c3cc4c(cc3[C@@H](O[C@@H]3O[C@@H]5CO[C@@H](C)O[C@H]5[C@H](O)[C@H]3O)[C@H]3COC(=O)[C@H]23)OCO4)cc(OC)c1O [Etoposide] (first compound max 10 µM, 7x7, partner max 10 µM)" study_target="SK-MM-2 (Plasma Cell Myeloma)" value_reported=0.0378
compound="NC1(C(=O)N[C@@H](CCO)c2ccc(Cl)cc2)CCN(c2ncnc3[nH]ccc23)CC1 [Capivasertib] + CC(=O)c1c(C)c2cnc(Nc3ccc(N4CCNCC4)cn3)nc2n(C2CCCC2)c1=O [Palbociclib] (first compound max 10 µM, 7x7, partner max 10 µM)" study_target="SK-MM-2 (Plasma Cell Myeloma)" value_reported=-0.0005
compound="Cc1c2c(nn1C)CSCc1cc(n(C)n1)CSc1cc(c3ccccc3c1)OCCCc1c(C(=O)O)n(C)c3c-2c(Cl)ccc13 [AZD5991] + Cn1cnc2c(F)c(Nc3ccc(Br)cc3Cl)c(C(=O)NOCCO)cc21 [Selumetinib] (first compound max 1 µM, 7x7, partner max 3 µM)" study_target="SK-MM-2 (Plasma Cell Myeloma)" value_reported=-0.0194
compound="COc1cc2ncnc(Nc3ccc(F)c(Cl)c3)c2cc1OCCCN1CCOCC1 [Gefitinib] + CC(C)n1c(=O)n(C)c2cnc3cc(F)c(-c4ccc(OCCCN5CCCCC5)nc4)cc3c21 [AZD1390] (first compound max 10 µM, 7x7, partner max 0.3 µM)" study_target="SK-MM-2 (Plasma Cell Myeloma)" value_reported=-0.0267
compound="Cc1cc2ncnn2cc1Nc1ncc2c(n1)n(C1CCOCC1)c(=O)n2C [AZD7648] + C[C@@H]1COCCN1C2=NC(=NC(=C2)C3(CC3)[S@](=N)(=O)C)C4=C5C=CNC5=NC=C4 [AZD6738] (first compound max 10 µM, 7x7, partner max 10 µM)" study_target="SK-MM-2 (Plasma Cell Myeloma)" value_reported=0.0022

Here is another compound to look at.
Just so you know, measured Bliss excess for O=C(c1cc(Cc2n[nH]c(=O)c3ccccc23)ccc1F)N1CCN(C(=O)C2CC2)CC1 [Olaparib] + CN(CC[C@H](CSC1=CC=CC=C1)NC2=C(C=C(C=C2)S(=O)(=O)NC(=O)C3=CC=C(C=C3)N4CCC(CC4)[C@H](C5=CC=CC=C5C6=CC=C(C=C6)Cl)O)S(=O)(=O)C(F)(F)F)CCO [AZD4320] (first compound max 10 µM, 7x7, partner max 1 µM) came out at 0.0047
